Molecular target: rat Constitutive Nitric Oxide Synthase (CNOS), Nos1 (gene 24598)
Experiment: NVS_ENZ_rCNOS: NovaScreen (NVS) Enzymatic Assay for rat Constitutive Nitric Oxide Synthase (CNOS) (AID 2283236)
Inconclusive results are not listed. The source made the active and inactive calls. Rule for the calls: active = hit-call score of the fitted dose curve at least 0.9, where 1 is the maximum; inconclusive = response in the unintended direction; inactive = score below 0.9.
Response enum: yes for active, no for inactive

**Query** I would be grateful if you could indicate the recorded call for CC1(C)C(=O)N(Br)C(=O)N1Br .
**Result** yes

**Query** And CC/C(=C\C(=N/O)C(N)=O)C(C)[N+](=O)[O-] (stereo not given) ?
**Result** no

**Query** Now the compound CC(C)=CCCC(C)CCO (stereo not given)
**Result** no

**Query** Follow-up item: CC(C)=CCCC(C)=CC=O
**Result** no

**Query** Please give the result for COc1cccc(-c2ccc(/C=C\CN3CCCCCC3)cc2Cl)c1 too.
**Result** yes
